Where these numbers come from: the EternaBench riboswitch data

The following sequences are shown together with reported apparent Kd values.
Test system: MS2 coat protein
Experiment: apparent Kd, MS2 coat protein; higher = weaker binding; RNA-MaP array
Details: ligand present: flavin mononucleotide; designed as: OFF switch for flavin mononucleotide
The response must be a number in nM with no trailing unit.

Sample records with apparent Kd:
CUCGUACAUGAGGAUCACCCAUGUCAGGAUAUUACUGUCGAGUCCAAAACUAGAAAGGUAAGAAGGGACACAUU 17.8
AUCGGCGCACAGAAGGGACGAUCAAACUGCUGAUCACAUGAGGAUCACCCAUGUUGUUUGGAUAGUCAGGAUAUGUUGACCAUG 16
GAAAUACAUGAGGAUCACCCAUGUCAGGAUAUCGGUGAGAAAGAGCAUCUCUGCGGCCCGAGAAGGGACACAGG 51.8

Return reported apparent Kd; argument: `GGAUUGAUAGGAUAUACAUAGAUGUAGGAGCCUUCACUCCCACAUGAGGAUCACCCAUGUAGAAGGAUCAGUAA`
23.6
